Test system: giant foxtail (Setaria faberi)
Assay: Test G Post-Emergence Protocol
Format: in vivo
Details: Setaria faberi, post-emergence, 312 h, 62.5 g ai/ha, evaluated after 13 days, read-out: Foxtail, Giant damage rating (100=total damage to plant; 0=no damage to plant)
Rule: measured pest or weed control at 62.5 g/ha below 60% gets 1.0; anything equal to or greater than 60% gets 0.0.

Here are 5 molecules together with their reported answers.
# MOLECULE, ASSIGNED_CLASS
data = [
    ("Cc1nc(NC(=O)[C@@H]2C(=O)N(C)C[C@H]2c2ccc(C(F)(F)F)cc2)ccc1Cl (racemic) [Compound 1642]", 1.0),
    ("CN1C[C@@H](c2ccc(C(F)(F)F)cc2)[C@H](C(=O)Nc2cccc(Cl)n2)C1=O (racemic) [Compound 1606]", 0.0),
    ("Cc1cncc(NC(=O)[C@@H]2C(=O)N(C)C[C@H]2c2ccc(C(F)(F)F)cc2)n1 (racemic) [Compound 1647]", 1.0),
    ("CN1C[C@@H](c2ccc(C(F)(F)F)cc2)[C@H](C(=O)Nc2ccc(F)c(Cl)c2F)C1=O (racemic) [Compound 1628]", 0.0),
    ("CN1C[C@@H](c2ccc(C(F)(F)F)cc2)[C@H](C(=O)Nc2ncc(Br)cn2)C1=O (racemic) [Compound 1514]", 1.0),
]

Okay, next one:
Below 60% on pest or weed control at 62.5 g/ha? Entry CN1C[C@H](c2cccc(C(C)(C)C#N)c2)[C@@H](C(=O)Nc2ccccc2F)C1=O (racemic) [Compound 1407]
0.0

Attribution: patent US12077503B2
